B1: tRNA (parent)
chain: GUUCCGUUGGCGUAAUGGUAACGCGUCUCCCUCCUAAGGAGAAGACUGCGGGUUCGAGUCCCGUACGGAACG

# Variants of: B1
# ASSAY_PROCEDURE: yeast fitness relative to wild type (ratio to wild type); higher = fitter; tRNA-Arg(CCU), competitive growth, 37 C, YPD
Variants at the floor of the assay were thinned out.
Please use 1 (yes) whenever yeast fitness is not below 0.7, and 0 (no) whenever it is.

Below, 4 variants whose answers are already recorded.
G10C C60U G63C :: 0 (no)
G6A U28G C60G :: 0 (no)
C4U C34A C46U U47A :: 0 (no)
G6C A14C U54C :: 0 (no)

Tell me whether yeast fitness is at least 0.7 here: G10A C27A C34U A57G
0 (no)

Could you please find out whether G9C C29A U32G C66U has yeast fitness that meets 0.7 or exceeds it?
0 (no)
